# target_of_assay: T1, rabbit LIGHT protein, FLAG-tagged extracellular domain (rabbit)
# T1 chain: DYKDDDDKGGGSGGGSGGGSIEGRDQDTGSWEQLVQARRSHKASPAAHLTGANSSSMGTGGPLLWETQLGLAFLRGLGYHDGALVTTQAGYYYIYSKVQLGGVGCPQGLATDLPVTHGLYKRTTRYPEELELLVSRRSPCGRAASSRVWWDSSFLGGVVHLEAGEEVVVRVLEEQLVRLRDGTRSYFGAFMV
# procedure_details: SPR ProteOn, mAb captured on anti-human IgG, 25 C
endpoint_label: binding result

INSERT INTO assay_data (binder, measured_value) VALUES
  ('31A10 in human IgG4(PE) format (antibody, V domains shown) VH: QVQLQESGPGLVKPSGTLSLTCAVSGGSISSINWWNWVRQPPGKGLEWIGEVSHSGITNYNPSLKSRVTMSVDKAKNQFSLKLNSVTAADTAVYYCARERAVADYHGMDVWGQGTTVTVSS VL: AIQLTQSPSSLSASVGDRVTITCRASQGISSALAWFQQKPGKPPKLLIFDASDLESGVSSRFSGSGSGTDFTLTISSLQPGDFATYYCQQFNSYPITFGQGTRLEIK', 'binds'),
  ('01C02 in human IgG4(PE) format (antibody, V domains shown) VH: QVQLVQSGAEVQKPGASVMVSCKASGYTFTYYGISWVRQAPGQGLEWMGWISANSGNTNYAQKFQGRVTMTTDTSTNTAYMELRSLRTDDTAVYYCAKGGVAVLEYWGQGTLVTVSS VL: DIQLTQSPSFLSASVGDRVTITCWASQGISSYLAWYQQKPGKAPNLLIYVASTLQSGVPSRFSGSGSGTEFTLTISSLQPEDFATYYCQQLKIYPLTFGGGTKVEIK', 'binds'),
  ('98C07 in human IgG4(PE) format (antibody, V domains shown) VH: QVQLVESGGGLVKPGGSLRLSCAASGFTFSDYYMSWIRQAPGKGLEWVSYISRSSFIYYSESVKGRFTISRDNAKNSLYLQMNSLRAEDTAVYYCARWELSPFDYWGQGTLVTVSS VL: DIQMTQSPSSLSASVGDRVTITCRASQGISNYLAWFQQKPGKAPKSLIYAASSLQSGVPSKFSGSGSGTDFTLTISSLQPEDFATYFCQQYNTYPFTFGPGTKVDIK', 'binds');
